Could you please report measured % inhibition of labeled B4 binding for the items listed next?
# ASSAYED TARGET: T1, CD19 antigen on Daudi lymphoma cells (human, UniProt P15391 20-556)
# T1 construct: whole, on cells; also called Daudi cells
# T1 sequence (looked up): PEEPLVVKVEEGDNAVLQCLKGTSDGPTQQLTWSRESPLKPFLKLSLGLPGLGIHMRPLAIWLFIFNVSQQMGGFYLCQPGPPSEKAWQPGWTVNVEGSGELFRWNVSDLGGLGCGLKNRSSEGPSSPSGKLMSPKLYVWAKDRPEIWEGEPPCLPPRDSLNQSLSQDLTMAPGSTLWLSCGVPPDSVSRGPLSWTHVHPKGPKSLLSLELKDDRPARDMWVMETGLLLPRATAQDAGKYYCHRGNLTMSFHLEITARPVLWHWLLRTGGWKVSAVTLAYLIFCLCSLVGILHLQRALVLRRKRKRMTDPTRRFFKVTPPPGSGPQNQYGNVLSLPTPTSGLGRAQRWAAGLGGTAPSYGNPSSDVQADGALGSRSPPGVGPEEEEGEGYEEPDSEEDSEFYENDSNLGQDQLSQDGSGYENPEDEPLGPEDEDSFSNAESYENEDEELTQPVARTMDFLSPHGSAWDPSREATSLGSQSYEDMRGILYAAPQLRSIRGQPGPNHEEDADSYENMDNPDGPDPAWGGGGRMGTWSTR
# ASSAY REMARKS: FACS competition on Daudi cells; unlabeled antibody 400 ng/ml (4x) vs competitor biotin-B4 VH0/VK0 100 ng/ml
Give just the number in %; leave the unit off.

So what's the measured % inhibition of labeled B4 binding for this one? B4 VHv4/VKv3 antibody (antibody, V domains shown) VH: QVQLEQPGAEVVKPGASVKVSCKTSGYTFTSNWMHWVKQTPGKGLEWIGEIDPSDSYTNYNQKFDGKAKLTVDKSSSTAYMEVSDLTAEDSATYYCARGSNPYYYAMDYWGQGTSVTVSS VL: QIVLTQSPATLSASPGEKATMTCSASSGANYMHWYQQKPGTSPKRWIYDTSKLASGVPARFSGSGSGTSYSLTIESMEAEDAATYYCHQRGSYTFGGGTKLEIK
44

So what's the measured % inhibition of labeled B4 binding for this one? B4 VHv3/VKv3 antibody (antibody, V domains shown) VH: QVQLEQPGAEVKKPGASVKVSCKASGYTFTSNWMHWVKQRPGQGLEWIGEIDPSDSYTNYNQKFKGKAKLTVDKSSSTAYMEVSDLTAEDSAVYYCARGSNPYYYAMDYWGQGTSVTVSS VL: QIVLTQSPATLSASPGEKATMTCSASSGANYMHWYQQKPGTSPKRWIYDTSKLASGVPARFSGSGSGTSYSLTIESMEAEDAATYYCHQRGSYTFGGGTKLEIK
40

So what's the measured % inhibition of labeled B4 binding for this one? B4 VHv2/VKv2 antibody (antibody, V domains shown) VH: QVQLQQPGAEVVKPGASVRLSCKTSGYTFTSNWMHWVKQRPGQGLEWIGEIDPSDSYTNYNQKFKGKAELTVDKSSSTAYMEVSDLTSEDSAVYYCARGSNPYYYAMDYWGQGTSVTVSS VL: DIVLTQSPATLSASPGEKVTMTCSASSGVNYMHWYQQKPGTSPKRWIYDTSKLDSGVPARFSGSGSGTSYSLTISSMEAEDAATYYCHQRGSYTFGGGTKLEIK
44
